- target-of-assay: Histone deacetylase 2 (Homo sapiens, UniProt Q92769)
- Sequence (Q92769 whole entry): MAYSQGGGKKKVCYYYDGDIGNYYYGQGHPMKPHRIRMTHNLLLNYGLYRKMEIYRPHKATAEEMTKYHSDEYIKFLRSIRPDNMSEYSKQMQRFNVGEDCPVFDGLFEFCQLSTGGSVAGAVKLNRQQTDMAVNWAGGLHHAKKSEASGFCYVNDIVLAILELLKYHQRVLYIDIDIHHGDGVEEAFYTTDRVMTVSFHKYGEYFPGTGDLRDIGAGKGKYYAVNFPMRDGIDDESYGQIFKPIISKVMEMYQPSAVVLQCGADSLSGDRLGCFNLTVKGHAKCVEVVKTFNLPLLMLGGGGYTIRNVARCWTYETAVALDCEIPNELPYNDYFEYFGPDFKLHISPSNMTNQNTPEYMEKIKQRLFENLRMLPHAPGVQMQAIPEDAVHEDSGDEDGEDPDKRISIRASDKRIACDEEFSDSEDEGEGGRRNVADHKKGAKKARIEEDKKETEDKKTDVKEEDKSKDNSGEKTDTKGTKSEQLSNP
- protocol-summary: Inhibition of recombinant human HDAC2 at 1 uM using p53 (Ac-RHKK(Acetyl)-AMC) as substrate preincubated for 5 mins followed by substrate addition and measured after 30 mins by fluorescence based analysis relative to control
- condition-description: time 35.0 min
test-readout: inhibition (%)

These recorded examples may help you get a feel for the data.
Reported inhibition ( "CCCNNC(=O)c1cnc(NCc2cccc3ccccc23)nc1" ) = 46

The compound "CCCCNNC(=O)c1cnc(NCc2ccccc2)nc1" showed inhibition equal to 46

inhibition reported for this compound "CCCNNC(=O)c1cnc(NCc2ccccc2Cl)nc1" : 55

I = CCCNNC(=O)c1cnc(NCCc2ccccc2)nc1
II = CCCCCCNNC(=O)c1ccc(C)c(NCc2ccccc2)c1
Q: Given the two records I and II , choose the one whose inhibition value is lower. Mark your selection by writing its label.
Result: II
(II: 5%, I: 39%)

----------
- target-of-assay: Histone deacetylase 1 (Homo sapiens)
- Sequence (Q13547 whole entry): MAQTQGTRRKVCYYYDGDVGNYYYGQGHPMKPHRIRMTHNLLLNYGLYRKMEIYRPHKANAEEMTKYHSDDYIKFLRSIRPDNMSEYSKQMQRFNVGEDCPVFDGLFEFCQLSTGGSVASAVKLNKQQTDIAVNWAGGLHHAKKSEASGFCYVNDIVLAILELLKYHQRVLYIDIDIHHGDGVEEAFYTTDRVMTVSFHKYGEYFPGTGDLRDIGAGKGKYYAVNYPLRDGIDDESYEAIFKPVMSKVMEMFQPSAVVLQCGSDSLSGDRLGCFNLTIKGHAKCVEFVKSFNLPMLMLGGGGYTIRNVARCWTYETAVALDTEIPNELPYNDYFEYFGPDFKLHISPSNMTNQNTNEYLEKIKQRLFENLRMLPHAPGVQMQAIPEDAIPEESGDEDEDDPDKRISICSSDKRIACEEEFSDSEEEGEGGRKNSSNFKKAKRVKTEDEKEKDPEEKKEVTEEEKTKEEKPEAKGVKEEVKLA
- protocol-summary: Inhibition of recombinant human HDAC1 at 1 uM using p53 (Ac-RHKK(Acetyl)-AMC) as substrate preincubated for 5 mins followed by substrate addition and measured after 90 mins by fluorescence based analysis relative to control
- condition-description: time 95.0 min
test-readout: inhibition (%)

Below, 5 compounds whose answers are already recorded.
What the record says about "CCCNNC(=O)c1cnc(NCc2cc(Cl)ccc2Cl)nc1" : inhibition is 66

Form: compound = "CCCCNNC(=O)c1cnc(NCc2ccccc2)nc1" ; inhibition = 61

Entry "CCCNNC(=O)c1cnc(NCc2ccc(Cl)cc2)nc1" , inhibition reported as 54

What the record says about "CCCNNC(=O)c1cnc(NCc2cccc3ccccc23)nc1" : inhibition is 53

Record summary for "CCCNNC(=O)c1cnc(NCc2ccccc2Cl)nc1" : reported inhibition = 71

P = CCCNNC(=O)c1cnc(NCCc2ccccc2)nc1
Q = CCCCCCNNC(=O)c1ccc(C)c(NCc2ccccc2)c1
Q: Hi there, can you help? I need to know whether P or Q has lower measured inhibition. Your answer should be the label of the entry you select.
Result: Q

----------
- target-of-assay: Histone deacetylase 8 (Homo sapiens, UniProt Q9BY41)
- Sequence (Q9BY41 whole entry): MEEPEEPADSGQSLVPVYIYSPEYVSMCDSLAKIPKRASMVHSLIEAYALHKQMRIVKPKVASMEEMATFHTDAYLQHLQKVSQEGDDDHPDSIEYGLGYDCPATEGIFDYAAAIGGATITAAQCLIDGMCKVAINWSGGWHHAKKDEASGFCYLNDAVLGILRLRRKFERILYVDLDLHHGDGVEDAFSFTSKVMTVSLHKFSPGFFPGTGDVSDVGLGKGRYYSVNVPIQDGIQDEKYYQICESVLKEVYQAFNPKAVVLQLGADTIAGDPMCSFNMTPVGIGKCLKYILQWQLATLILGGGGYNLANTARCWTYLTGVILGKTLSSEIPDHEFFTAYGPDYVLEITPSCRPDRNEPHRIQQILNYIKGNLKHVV
- protocol-summary: Inhibition of recombinant human HDAC8 using (Abz-SRGK(thio-TFA)FFRR-NH2) as substrate preincubated for 5 mins followed by substrate addition by fluorescence based analysis
pIC50: −log10 of the molar value.
test-readout: pIC50

Known pIC50 results, listed for orientation:
Form: item "CCCCCNNC(=O)c1ccc(-c2ccc(CNC(C)=O)cc2)cc1" ; test system Histone deacetylase 8 (Homo sapiens, UniProt Q9BY41); pIC50: 6.46

I looked up "CCCNNC(=O)c1cnc(NCc2ccccc2)nc1" and its pIC50 for Histone deacetylase 8 (Homo sapiens, UniProt Q9BY41) was 6.00

So the reported pIC50 for "CCCNNC(=O)c1cnc(N2CCN(C)CC2)nc1" , on Histone deacetylase 8 (Homo sapiens, UniProt Q9BY41), turned out to be 6.60

Let me check: "CCCCCCNNC(=O)c1cnc(NCc2ccc(CNC(C)=O)cc2)nc1" , system Histone deacetylase 8 (Homo sapiens, UniProt Q9BY41), measured pIC50 is 7.72

Per the reported Histone deacetylase 8 (Homo sapiens, UniProt Q9BY41) data, "CCCCCCNNC(=O)c1cnc(NCCc2ccccc2)nc1" has pIC50 of 7.55

For the compound "CCCCCCNNC(=O)c1cnc(NCc2cccc3ccccc23)nc1" , the measured pIC50 on Histone deacetylase 8 (Homo sapiens, UniProt Q9BY41) was 7.20

# lookup: "CCCCNNC(=O)c1ccc(-c2ccc(CNC(C)=O)cc2)cc1" on Histone deacetylase 8 (Homo sapiens, UniProt Q9BY41), pIC50 = 6.44

I looked up "CCCCCCNNC(=O)c1cnc(N2CCN(CCc3c[nH]c4ccccc34)CC2)nc1" and its pIC50 for Histone deacetylase 8 (Homo sapiens, UniProt Q9BY41) was 7.89

// pIC50 (Histone deacetylase 8 (Homo sapiens, UniProt Q9BY41)) for "CCCCCCNNC(=O)c1cnc(N2CCN(CCc3cn(C)c4ccccc34)CC2)nc1" = 7.64

The compound "CCCCCCNNC(=O)c1cnc(NCc2ccccc2)nc1" , when measured on Histone deacetylase 8 (Homo sapiens, UniProt Q9BY41), yielded pIC50 of 7.80

A = CCCNNC(=O)c1cnc(N2CCN(Cc3c[nH]c4ccccc34)CC2)nc1
B = CCCCCCNNC(=O)c1ccc(CNC(C)=O)cc1
C = CCCCCCNNC(=O)c1cccc(NCc2ccccc2)c1
D = CCCCCCNNC(=O)c1cnc(N2CCN(Cc3cn(C)c4ccccc34)CC2)nc1
E = CCCNNC(=O)c1ccc(-c2ccc(CNC(C)=O)cc2)cc1
Q: # rank by pIC50, ascending (min first) // rank by listing labels in the order requested
Result: E, C, B, D, A

----------
- target-of-assay: Histone deacetylase 1 (Homo sapiens)
- protocol-summary: Inhibition of recombinant human HDAC1 using p53 (Ac-RHKK(Acetyl)-AMC) as substrate preincubated for 5 mins followed by substrate addition and measured after 90 mins by fluorescence based analysis
test-readout: IC50 (nM)

Known IC50 results, listed for orientation:
The measured IC50 associated with "CCCNNC(=O)c1cnc(N2CCN(C)CC2)nc1" reads 590

The recorded IC50 for entry "CCCCCCNNC(=O)c1cnc(N2CCN(CCc3c[nH]c4ccccc34)CC2)nc1" equals 860

Reported IC50 for "CCCCCCNNC(=O)c1cnc(N2CCN(Cc3cn(C)c4ccccc34)CC2)nc1" was 170

IC50 in this record for "CCCCCCNNC(=O)c1cnc(NCc2ccccc2)nc1" : 560

// IC50 lookup, compound = "CCCCCCNNC(=O)c1ccc(-c2ccc(CNC(C)=O)cc2)cc1" , result: 1800

Briefly, IC50 measured for "CCCCCCNNC(=O)c1cnc(NCCc2ccccc2)nc1" : 2200

The compound identified as "CCCNNC(=O)c1cnc(NCc2ccccc2)nc1" registered its IC50 at 250

The reported IC50 of the compound "CCCNNC(=O)c1ccc(CNC(C)=O)cc1" was 1600

The recorded IC50 for "CCCNNC(=O)c1cnc(NCc2ccc(CNC(C)=O)cc2)nc1" is 290

According to the records, this compound "CCCNNC(=O)c1cnc(N2CCN(Cc3c[nH]c4ccccc34)CC2)nc1" displays IC50 of 73

I = CCCCNNC(=O)c1ccc(-c2ccc(CNC(C)=O)cc2)cc1
II = CCCCCCNNC(=O)c1cnc(N2CCN(Cc3c[nH]c4ccccc34)CC2)nc1
III = CCCCCCNNC(=O)c1cnc(NCc2cccc3ccccc23)nc1
IV = CCCCCCNNC(=O)c1cnc(N2CCN(CCc3cn(C)c4ccccc34)CC2)nc1
V = CCCNNC(=O)c1ccc(-c2ccc(CNC(C)=O)cc2)cc1
Q: Arrange the 5 entries by IC50 so the values rise. Respond with an ordered listing of the labels, as requested.
Result: II, IV, I, V, III
(II: 170 nM, IV: 400 nM, I: 620 nM, V: 1600 nM, III: 8300 nM)

a = CCCCCNNC(=O)c1ccc(-c2ccc(CNC(C)=O)cc2)cc1
b = CCCCCCNNC(=O)c1cnc(NCc2ccc(CNC(C)=O)cc2)nc1
c = CCCCCCNNC(=O)c1ccc(CNC(C)=O)cc1
Q: Please list these compounds in decreasing order of IC50. Give the order by naming the labels one after another as requested.
Result: c, b, a

----------
- target-of-assay: Histone deacetylase 3 (Homo sapiens, UniProt O15379)
- Sequence (O15379 whole entry): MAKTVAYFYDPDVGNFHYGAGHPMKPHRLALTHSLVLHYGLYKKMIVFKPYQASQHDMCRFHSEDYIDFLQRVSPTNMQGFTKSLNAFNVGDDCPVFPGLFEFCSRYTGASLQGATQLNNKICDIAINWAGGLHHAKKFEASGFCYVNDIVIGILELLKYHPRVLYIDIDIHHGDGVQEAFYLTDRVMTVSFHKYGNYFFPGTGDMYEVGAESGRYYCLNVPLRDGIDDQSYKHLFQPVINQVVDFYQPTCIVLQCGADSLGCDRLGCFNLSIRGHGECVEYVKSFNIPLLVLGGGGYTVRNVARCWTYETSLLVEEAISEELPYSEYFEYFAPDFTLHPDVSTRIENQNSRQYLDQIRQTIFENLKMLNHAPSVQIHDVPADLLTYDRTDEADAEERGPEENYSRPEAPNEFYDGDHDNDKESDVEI
- protocol-summary: Inhibition of recombinant human HDAC3 using p53 (Ac-RHKK(Acetyl)-AMC) as substrate preincubated for 5 mins followed by substrate addition and measured after 30 mins by fluorescence based analysis
pIC50: −log10 of the molar value.
test-readout: pIC50

Consider the following illustrative entries.
Given item "CCCNNC(=O)c1cnc(NCc2ccccc2Cl)nc1" , the value recorded as its pIC50 is 7.22

# compound "CCCCCCNNC(=O)c1cnc(N2CCN(Cc3cn(C)c4ccccc34)CC2)nc1" ; its pIC50 = 6.52

# pIC50 of "CCCCCCNNC(=O)c1cnc(NCc2ccccc2)nc1" = 5.52

The value of pIC50 measured for the compound "CCCCCCNNC(=O)c1cnc(NCCc2ccccc2)nc1" turned out to be 5.14

pIC50 reported for this compound "CCCCCCNNC(=O)c1cnc(N2CCN(Cc3c[nH]c4ccccc34)CC2)nc1" : 7.00

Looking up "CCCNNC(=O)c1cnc(NCc2ccc(Cl)cc2)nc1" , I found its pIC50 recorded as 7.43

// "CCCNNC(=O)c1ccc(-c2ccc(CNC(C)=O)cc2)cc1" : pIC50 value = 7.04

The compound identified as "CCCNNC(=O)c1cnc(N2CCN(C)CC2)nc1" registered its pIC50 at 6.92

1 = CCCCCCNNC(=O)c1cnc(N2CCN(CCc3cn(C)c4ccccc34)CC2)nc1
2 = CCCNNC(=O)c1cnc(NCc2ccccc2)nc1
Q: Record comparison, field pIC50: mark the lower of 1 and 2 . State the label of the item chosen.
Result: 1
(1: 5.85, 2: 7.36)
